Each recorded value in this set is attributed to ChEMBL document CHEMBL3991601.

- assayTarget: Receptor-interacting serine/threonine-protein kinase 2 (Homo sapiens, UniProt O43353); note: in the data inactive means no Kd found up to 30 µM
- Sequence (O43353 whole entry): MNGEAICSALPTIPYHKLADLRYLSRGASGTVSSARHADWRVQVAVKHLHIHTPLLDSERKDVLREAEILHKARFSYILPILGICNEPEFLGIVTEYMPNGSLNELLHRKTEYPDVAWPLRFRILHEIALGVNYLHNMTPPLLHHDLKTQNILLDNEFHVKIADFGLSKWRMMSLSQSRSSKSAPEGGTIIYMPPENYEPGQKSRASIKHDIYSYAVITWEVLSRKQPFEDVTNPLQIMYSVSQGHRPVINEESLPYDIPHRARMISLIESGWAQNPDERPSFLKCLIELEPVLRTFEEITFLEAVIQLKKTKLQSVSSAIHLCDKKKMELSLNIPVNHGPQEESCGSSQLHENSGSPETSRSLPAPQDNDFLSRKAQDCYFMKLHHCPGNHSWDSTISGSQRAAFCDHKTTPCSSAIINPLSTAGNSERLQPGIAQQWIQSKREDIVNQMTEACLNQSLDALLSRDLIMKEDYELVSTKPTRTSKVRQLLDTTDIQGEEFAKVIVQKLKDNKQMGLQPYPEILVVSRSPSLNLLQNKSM
Active and inactive are the calls of the source.
One label from this list, please: y (active), n (inactive)

compound	qualitativeLabel
O=C(O)c1ccc2c(c1)nc(Nc1cccc(Cl)c1)c1ccncc12	n
Cn1c(=O)c(F)c(Nc2ccc(I)cc2F)c2c(=O)n(C[C@@H](O)CO)cnc21	n
CNC(=O)c1cc(COc2nnc(Nc3ccc(Cl)cc3)c3ccoc23)ccn1	n
O=C(NOC[C@H](O)CO)c1ccc(F)c(F)c1Nc1ccc(I)cc1F	n
Cc1c(Cn2c(C)nc3c(C(=O)O)cc(N4CCOCC4)cc32)cccc1C(F)(F)F	n
CC[C@@](C)(Nc1ccnc(-c2c[nH]c3ncccc23)n1)C(=O)NCC(F)(F)F	n
C=CC(=O)Nc1cccc(Nc2nc(Nc3ccc(N4CCN(C(C)=O)CC4)cc3OC)ncc2C(F)(F)F)c1	n
CC1(COc2ccc3c(c2)ncn3-c2ccc3cccc(N4CCC(N)CC4)c3n2)COC1	y

What did this assay record as the result for O=S(=O)(c1cccc2c(O)nccc12)N1CCCNCC1 [HYDROXYFASUDIL] ? n

What did this assay record as the result for `CC(C)CC(=O)Nc1[nH]nc2c1CN(C(=O)C1CCN(C)CC1)C2(C)C` ? n

What did this assay record as the result for `COc1cc2ncnc3c2cc1OCCCCCN(C)Cc1ccc(Br)cc1N3` ? y

What did this assay record as the result for `COc1cc2ncnc(Nc3ccc(O)cc3)c2cc1OC` ? y

What did this assay record as the result for `C=CCn1c(=O)c2cnc(Nc3ccc(N4CCN(C)CC4)cc3)nc2n1-c1cccc(C(C)(C)O)n1` ? n

What did this assay record as the result for `NC(=O)c1ccc(N(C(N)=O)c2c(F)cccc2F)nc1-c1ccc(F)cc1F` ? n

What did this assay record as the result for `CN1CCN(c2nc(C3=C(c4c[nH]c5ccccc45)C(=O)NC3=O)c3ccccc3n2)CC1` ? n

What did this assay record as the result for `O=C(NC[C@H](O)CO)c1ccncc1Nc1ccc(I)cc1F` ? n

What did this assay record as the result for `C[C@]1(O)C[C@@H](c2nc(-c3ccc4ccc(-c5ccccc5)nc4c3)c3c(N)nccn32)C1` ? y
